target: Human complement C1s enzyme (Homo sapiens, UniProt P09871)
Construct: purified from human serum, Complement Technology, Inc
Sequence (P09871 438-688 limits assumed): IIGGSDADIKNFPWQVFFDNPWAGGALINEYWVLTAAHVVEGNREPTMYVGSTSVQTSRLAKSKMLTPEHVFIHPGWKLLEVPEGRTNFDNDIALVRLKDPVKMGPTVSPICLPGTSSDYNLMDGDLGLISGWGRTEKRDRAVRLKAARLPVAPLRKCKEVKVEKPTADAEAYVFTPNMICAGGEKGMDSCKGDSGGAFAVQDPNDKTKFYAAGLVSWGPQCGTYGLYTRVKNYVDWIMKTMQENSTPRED
Sequence (P09871 16-437 partner limits assumed): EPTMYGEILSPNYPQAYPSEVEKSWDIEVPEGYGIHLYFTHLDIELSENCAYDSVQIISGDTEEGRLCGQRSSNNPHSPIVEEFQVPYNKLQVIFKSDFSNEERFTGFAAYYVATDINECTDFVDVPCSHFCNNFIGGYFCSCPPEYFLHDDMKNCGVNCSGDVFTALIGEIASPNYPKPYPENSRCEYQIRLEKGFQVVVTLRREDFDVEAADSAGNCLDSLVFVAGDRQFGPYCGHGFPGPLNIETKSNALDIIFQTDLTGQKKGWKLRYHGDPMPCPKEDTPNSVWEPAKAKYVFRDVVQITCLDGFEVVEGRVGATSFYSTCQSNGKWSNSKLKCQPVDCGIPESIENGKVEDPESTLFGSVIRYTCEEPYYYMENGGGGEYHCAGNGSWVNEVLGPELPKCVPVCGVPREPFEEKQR
assay-comment: Human C1s enzyme assay
experimental-setup: human complement C1s enzyme 1.16 nM, substrate Z-L-Lys-SBzl, A405; read-out: IC50 (Stars)
pIC50: −log10 of the molar value.
Give pIC50 for every item shown.

Worked examples, 6 compounds total:
compound	pIC50
O=C(Cn1c(-c2ccccc2)ncc(NS(=O)(=O)c2ccccc2)c1=O)NCc1cc2cnccc2[nH]1 [Compound 395]	< 6.00
COCc1ncc(N[C@H](C)c2ccc3oc4ccccc4c3c2)c(=O)n1CC(=O)NCc1cc2cnccc2[nH]1 [Compound 365]	6.00 to 7.00
O=C(Cn1c(-c2ccccc2)ncc(NC(=O)C2CCC(Oc3ccccc3)CC2)c1=O)NCc1cc2cnccc2[nH]1 (stereo not drawn) [Compound 49]	> 7.00
CS(=N)(=O)c1ccc(CCCNc2cnc(-c3ccccc3)n(CC(=O)NCc3cc4cnccc4[nH]3)c2=O)cc1 (stereo not drawn) [Compound 105]	> 7.00
C[C@@H](Nc1ncc(C2CCOCC2)n(CC(=O)NCc2cc3cnccc3[nH]2)c1=O)c1ccc2oc3ccccc3c2c1 [Compound 471]	> 7.00
C[C@@H](Nc1cnc(-c2ccccc2)n(CC(=O)NCc2cc(Cl)ccc2-n2cnnn2)c1=O)c1ccc2oc3ccccc3c2c1 [Compound 425]	< 6.00

Dear colleague, could you send me pIC50 for each of the items below? Thanks.
1. O=C(Cn1c(-c2ccccc2)ncc(NCC2CCC(c3ccccc3)CC2)c1=O)NCc1cc2cnccc2[nH]1 (stereo not drawn) [Compound 303]
2. O=C(Cn1c(-c2ccccc2)ncc(Nc2ccc(Oc3ccccc3)cc2)c1=O)NCc1cc2cnccc2[nH]1 [Compound 228]
3. O=C(Cn1c(N2CCOCC2)ncc(NC(=O)c2cnc(-c3ccccc3)o2)c1=O)NCc1cc2cnccc2[nH]1 [Compound 408]

A)
1. > 7.00
2. > 7.00
3. > 7.00

Dear colleague, could you send me pIC50 for each of the items below? Thanks.
1. C[C@@H](Nc1cnc(N2CCCCC2)n(CC(=O)NCc2cc3cnccc3[nH]2)c1=O)c1coc(-c2ccccc2F)n1 [Compound 475]
2. O=C(Cn1c(-c2ccccc2)ncc(NC(=O)c2cnc(-c3ccccc3)o2)c1=O)NCc1cc2cnccc2[nH]1 [Compound 107]

A)
6.00 to 7.00
> 7.00

Dear colleague, could you send me pIC50 for each of the items below? Thanks.
1. O=C(Cn1c(-c2ccccc2)ncc(N2Cc3ccccc3C2)c1=O)NCc1cc2cnccc2[nH]1 [Compound 184]
2. COc1ccccc1-c1ccc(C(=O)Nc2cnc(-c3ccccc3)n(CC(=O)NCc3cc4cnccc4[nH]3)c2=O)cc1 [Compound 213]
3. C[C@H](NC(=O)Cn1c(-c2ccccc2)cnc(NCCCc2ccccc2)c1=O)c1cc2cnccc2[nH]1 [Compound 47]
4. Cc1ncc(NCc2ccc3oc4ccccc4c3c2)c(=O)n1CC(=O)NCc1cc2cnccc2[nH]1 [Compound 247]
5. O=C(Cc1cc(NCCCc2ccccc2)cnc1-c1ccccc1)NCc1cc2cnccc2[nH]1 [Compound 207]

A)
["< 6.00", "> 7.00", "< 6.00", "> 7.00", "< 6.00"]

Dear colleague, could you send me pIC50 for each of the items below? Thanks.
1. Cc1nc(-c2ccccc2)nc(OCC(=O)NCc2cc3cnccc3[nH]2)c1NCc1ccc2oc3ccccc3c2c1 [Compound 269]
2. CP(=O)(O)c1ccc(CCCNc2cnc(-c3ccccc3)n(CC(=O)NCc3cc4cnccc4[nH]3)c2=O)cc1 [Compound 91]
3. C[C@@H](Nc1cnc(-c2ccc(S(C)(=O)=O)cc2)n(CC(=O)NCc2cc3cnccc3[nH]2)c1=O)c1ccc2oc3ccccc3c2c1 [Compound 230]

A)
["< 6.00", "> 7.00", "> 7.00"]

Dear colleague, could you send me pIC50 for each of the items below? Thanks.
1. O=C(Cn1c(-c2ccco2)ncc(NCc2ccc3oc4ccccc4c3c2)c1=O)NCc1cc2cnccc2[nH]1 [Compound 232]
2. C[C@H](Nc1cnc(-c2ccccc2F)n(CC(=O)NCc2cc3cnccc3[nH]2)c1=O)c1ccc2c(c1)oc1ccccc12 [Compound 309]

A)
> 7.00
> 7.00

###

Give pIC50 for every item shown.
target: Human complement C1s enzyme (Homo sapiens, UniProt P09871)
Construct: purified from human serum, Complement Technology, Inc
Sequence (P09871 438-688 limits assumed): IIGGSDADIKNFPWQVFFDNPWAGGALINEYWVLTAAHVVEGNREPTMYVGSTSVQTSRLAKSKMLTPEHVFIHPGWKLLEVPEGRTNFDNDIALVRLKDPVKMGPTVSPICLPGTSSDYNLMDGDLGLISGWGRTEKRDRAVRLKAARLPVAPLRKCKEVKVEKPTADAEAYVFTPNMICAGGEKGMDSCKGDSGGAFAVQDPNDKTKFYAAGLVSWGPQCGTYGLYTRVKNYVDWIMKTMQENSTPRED
Sequence (P09871 16-437 partner limits assumed): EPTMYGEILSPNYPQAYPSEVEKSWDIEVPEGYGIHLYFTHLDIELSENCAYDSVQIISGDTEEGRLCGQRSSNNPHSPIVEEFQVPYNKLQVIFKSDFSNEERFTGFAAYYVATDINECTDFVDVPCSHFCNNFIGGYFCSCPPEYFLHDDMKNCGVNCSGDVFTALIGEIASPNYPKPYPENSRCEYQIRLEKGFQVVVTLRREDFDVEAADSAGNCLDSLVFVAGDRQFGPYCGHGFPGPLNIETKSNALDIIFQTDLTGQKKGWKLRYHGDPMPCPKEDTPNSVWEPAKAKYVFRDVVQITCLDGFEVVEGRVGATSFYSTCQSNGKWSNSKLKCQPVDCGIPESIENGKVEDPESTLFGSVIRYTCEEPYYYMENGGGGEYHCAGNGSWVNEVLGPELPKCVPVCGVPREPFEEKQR
assay-comment: Human C1s enzyme assay
experimental-setup: human complement C1s enzyme 1.16 nM, substrate Z-L-Lys-SBzl, A405; read-out: IC50 (Stars)
pIC50: −log10 of the molar value.

Worked examples, 3 compounds total:
compound	metric-name	observed-result
C[C@@H](Nc1cnc(N2CCCC(C(F)(F)F)C2)n(CC(=O)NCc2cc3cnccc3[nH]2)c1=O)c1ccc2oc3ccccc3c2c1 (stereo partly shown)	pIC50	6.00 to 7.00
O=C(Cn1c(-c2ccccc2)ncc(NC(=O)c2ccc(-c3ccccc3)s2)c1=O)NCc1ccc(Cl)s1	pIC50	< 6.00
O=C(Cn1c(-c2ccncc2)ncc(NCc2ccc3oc4ccccc4c3c2)c1=O)NCc1cc2cnccc2[nH]1	pIC50	> 7.00

Dear colleague, could you send me pIC50 for each of the items below? Thanks.
1. Cc1nc(-c2ccccc2)n(CC(=O)NCc2cc3cnccc3[nH]2)c(=O)c1N[C@H](C)c1ccc2oc3ccccc3c2c1
2. C[C@@H](Nc1cnc(N2CCN(C(=O)C3CC3)CC2)n(CC(=O)NCc2cc3cnccc3[nH]2)c1=O)c1ccc2oc3ccccc3c2c1
3. C[C@H](Nc1cncn(CC(=O)NCc2cc3cnccc3[nH]2)c1=O)c1ccc2oc3ccccc3c2c1

A)
["> 7.00", "6.00 to 7.00", "> 7.00"]

Lab note: measured pIC50 of C[C@@H](Nc1cnc(-c2ccccc2)n(CC(=O)N[C@H](C)c2cc3cnccc3[nH]2)c1=O)c1ccc2oc3ccccc3c2c1 was 6.00 to 7.00

###

target: Human complement C1s enzyme (Homo sapiens)
Construct: purified from human serum, Complement Technology, Inc
Sequence (P09871 438-688 limits assumed): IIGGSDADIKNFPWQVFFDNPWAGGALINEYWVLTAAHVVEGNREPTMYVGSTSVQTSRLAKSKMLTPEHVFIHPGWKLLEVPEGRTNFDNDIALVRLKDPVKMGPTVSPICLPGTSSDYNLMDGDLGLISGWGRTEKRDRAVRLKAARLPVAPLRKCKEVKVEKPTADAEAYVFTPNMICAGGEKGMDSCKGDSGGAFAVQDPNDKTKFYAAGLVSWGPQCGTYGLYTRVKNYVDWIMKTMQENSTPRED
Sequence (P09871 16-437 partner limits assumed): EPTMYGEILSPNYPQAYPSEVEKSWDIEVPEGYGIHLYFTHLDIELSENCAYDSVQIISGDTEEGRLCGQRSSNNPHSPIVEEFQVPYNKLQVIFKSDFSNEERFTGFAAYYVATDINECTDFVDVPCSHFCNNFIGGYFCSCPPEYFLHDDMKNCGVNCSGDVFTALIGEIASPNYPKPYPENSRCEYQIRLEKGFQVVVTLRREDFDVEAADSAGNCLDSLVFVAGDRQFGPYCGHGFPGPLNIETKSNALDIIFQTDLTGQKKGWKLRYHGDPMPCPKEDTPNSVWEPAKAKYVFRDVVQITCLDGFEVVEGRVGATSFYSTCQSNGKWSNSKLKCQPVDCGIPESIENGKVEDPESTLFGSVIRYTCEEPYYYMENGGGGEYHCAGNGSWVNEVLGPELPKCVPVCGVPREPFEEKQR
assay-comment: Human C1s enzyme assay
experimental-setup: human complement C1s enzyme 1.16 nM, substrate Z-L-Lys-SBzl, A405; read-out: IC50 (Stars)
pIC50: −log10 of the molar value.
Give pIC50 for every item shown.

compound	pIC50
Cc1ccc(-c2ncc(N[C@H](C)c3ccc4oc5ccccc5c4c3)c(=O)n2CC(=O)NCc2cc3cnccc3[nH]2)c(F)c1 [Compound 436]	> 7.00
CO[C@@H]1CO[C@H]2[C@@H]1OC[C@H]2Oc1ncc(NCCCc2ccccc2)c(=O)n1CC(=O)NCc1cc2cnccc2[nH]1 [Compound 87]	6.00 to 7.00

# input for lookup
Lab note: measured pIC50 of O=C(Cn1c(-c2ccccc2)ncc(NC(=O)OCc2ccccc2)c1=O)NCc1cc2cnccc2[nH]1 [Compound 31] was < 6.00
